Recorded IC50 of in vitro cell killing on MC38-hClaudin18.2 cells (AlamarBlue cell viability), one value per entry.
- experimentalSystem: T1, human Claudin18.2 (human, UniProt P56856 1-261)
- T1 sequence (looked up): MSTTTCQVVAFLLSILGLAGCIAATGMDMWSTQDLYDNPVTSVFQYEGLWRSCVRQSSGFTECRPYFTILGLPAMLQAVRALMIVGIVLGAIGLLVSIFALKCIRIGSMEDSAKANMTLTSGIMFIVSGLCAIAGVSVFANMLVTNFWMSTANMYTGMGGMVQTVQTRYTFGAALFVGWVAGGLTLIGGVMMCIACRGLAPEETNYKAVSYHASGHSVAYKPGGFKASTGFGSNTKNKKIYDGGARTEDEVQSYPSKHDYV
- assayDetails: cell-based or functional assay
Your answer is read as nM, so omit the unit and give the number.

# IC50 of in vitro cell killing on MC38-hClaudin18.2 cells (AlamarBlue cell viability) of 9D1-LD-37 (antibody, human IgG1, kappa, V domains shown, LD-37 linker-drug (Exatecan) on reduced interchain cysteines (Conjugation Method 1, DAR 8)) VH: QIQLVQSGAEVKKPGASVKISCKASGYSFTDYHMNWVRQAPGKGLEWIGNIDPYYGSPTYNHKFKGRVTLTVDTSTSTAYMELSSLRSEDTAVYYCANYGRGNSFPYWGQGTLVTVSS VL: DIVMTQSPSSLAVSLGERATINCKSSQSLLNSGNQRNYLTWYQQKPGQPPKLLIYWASTRESGVPDRFSGSGSGTDFTLTISSLQAEDVAVYYCQNDYSFPFTFGQGTKLEIKR = 0.802
